# run.description: Pharmacokinetic evaluation in mice
# Assay type: in vivo, C57 mice
# condition.info: female, C57, mouse, plasma, po, intragastric administration, 2 mg/kg, read-out: Clearance CLz/F
test.readout: CL/F (mL/min/kg)
I only need the number, in mL/min/kg, no unit after it.

>>> print(df.to_string())
                                   molecule  test_readout  number
0  O=C(O)c1ccc2nc(CN3CCC(c4cccc5c4O[C@@H](c4ccc(Cl)cc4F)CO5)CC3)n(C[C@@H]3CCO3)c2c1 [Example 4]          CL/F    14.8

Continue with the molecule presented below.
IN: Could you please provide reported CL/F for O=C(O)c1ccc2nc(CN3CCC(c4cccc5c4O[C@@H](c4ccc(Cl)cc4F)CO5)CC3)n(C[C@@H]3CCO3)c2n1 [Example 5] ? Thanks!
OUT: 23.1

----------
# run.description: Pharmacokinetic evaluation in dogs
# Type: in vivo
# condition.info: male, dog, plasma; beagle dogs, intravenous injection, 0.5 mg/kg; read-out: Half-life T½ (converted)
test.readout: half-life
# output: number + unit

>>> print(df.to_string())
                                   compound  result
0  O=C(O)c1ccc2nc(CN3CCC(c4cccc5c4O[C@@H](c4ccc(Cl)cc4F)CO5)CC3)n(C[C@@H]3CCO3)c2c1 [Example 4]   5.4 h

Consider the record given below.
IN: For O=C(O)c1ccc2nc(CN3CCC(c4cccc5c4O[C@@H](c4ccc(Cl)cc4F)CO5)CC3)n(C[C@@H]3CCO3)c2n1 [Example 5] , write its half-life.
OUT: 3 h

----------
# target.under.test: CYP2C19 (Homo sapiens (Human), UniProt P33261)
# Sequence (P33261 whole entry): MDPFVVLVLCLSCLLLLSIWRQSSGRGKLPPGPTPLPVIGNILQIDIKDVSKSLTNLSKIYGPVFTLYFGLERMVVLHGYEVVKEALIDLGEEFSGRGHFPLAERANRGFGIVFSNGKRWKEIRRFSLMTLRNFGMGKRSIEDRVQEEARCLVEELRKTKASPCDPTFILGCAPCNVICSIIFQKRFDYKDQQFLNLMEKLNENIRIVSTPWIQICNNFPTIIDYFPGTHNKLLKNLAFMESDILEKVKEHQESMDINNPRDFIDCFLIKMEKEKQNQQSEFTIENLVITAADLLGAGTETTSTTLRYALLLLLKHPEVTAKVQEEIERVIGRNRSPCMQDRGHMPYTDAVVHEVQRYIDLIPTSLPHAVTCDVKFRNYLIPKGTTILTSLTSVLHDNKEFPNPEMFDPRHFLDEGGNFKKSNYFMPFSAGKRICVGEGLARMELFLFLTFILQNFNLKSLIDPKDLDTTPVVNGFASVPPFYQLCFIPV
# run.description: Inhibition of human liver microsome CYP450 enzyme, CYP2C19 (S)-mephenytoin site
# Format: in vitro ADME
# condition.info: human liver microsomes, probe substrate (S)-mephenytoin
test.readout: IC50

# annotated cases, reported IC50 shown
>>> print(df.to_string())
                                   compound  test_readout   result
0  O=C(O)c1ccc2nc(CN3CCC(c4cccc5c4O[C@@H](c4ccc(Cl)cc4F)CO5)CC3)n(C[C@@H]3CCO3)c2n1          IC50  > 30 µM
1  O=C(O)c1ccc2nc(CN3CCC(c4cccc5c4O[C@@H](c4ccc(Cl)cc4F)CO5)CC3)n(C[C@@H]3CCO3)c2c1          IC50  > 30 µM

Here is the next item to consider.
IN: Provide CYP2C19 (Homo sapiens (Human), UniProt P33261) IC50 reading for C[C@]1(c2ccc(Cl)cc2F)Oc2cccc(C3CCN(Cc4nc5ccc(C(=O)O)cc5n4C[C@@H]4CCO4)CC3)c2O1 [Positive compound 1, reference compound] .
OUT: 7.4 µM

----------
# target.under.test: GLP-1 receptor (Homo sapiens (Human), UniProt P43220)
# Sequence (P43220 24-463): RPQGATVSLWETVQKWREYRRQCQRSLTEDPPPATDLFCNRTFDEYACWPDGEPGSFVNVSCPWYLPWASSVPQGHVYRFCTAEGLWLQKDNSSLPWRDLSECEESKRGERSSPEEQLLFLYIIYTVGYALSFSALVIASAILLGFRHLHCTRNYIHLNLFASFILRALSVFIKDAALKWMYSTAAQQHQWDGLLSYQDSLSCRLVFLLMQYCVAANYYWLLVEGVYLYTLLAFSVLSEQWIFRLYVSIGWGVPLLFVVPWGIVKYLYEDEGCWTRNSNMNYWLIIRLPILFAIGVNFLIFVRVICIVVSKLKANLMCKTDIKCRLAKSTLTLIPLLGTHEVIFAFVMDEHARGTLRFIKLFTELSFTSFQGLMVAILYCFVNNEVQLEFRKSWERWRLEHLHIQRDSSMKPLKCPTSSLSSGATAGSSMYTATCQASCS
# run.description: Agonist activity against GLP-1 receptor, CRE-luciferase reporter (ONE-Glo) in CHO-K1/CRE-luc/GLP-1 receptor cells
# condition.info: 6 h incubation
List of pEC50 values.
A value of pEC50 is the negative decimal logarithm of a concentration given in moles per litre.

Below: 5 molecules and their reported pEC50.
>>> print(df.to_string())
                                   molecule  test_readout  number
0  N#Cc1ccc(C2COc3cccc(C4CCN(Cc5nc6ccc(C(=O)O)cc6n5C[C@@H]5CCO5)CC4)c3O2)c(F)c1 (stereo partly drawn)         pEC50    8.85
1  O=C(O)c1ccc2nc(CN3CCC(c4cccc5c4OC(c4nc6ccccc6s4)CO5)CC3)n(C[C@@H]3CCO3)c2c1 (stereo partly drawn)         pEC50    9.25
2  O=C(O)c1ccc2nc(CN3CCC(c4cccc5c4O[C@@H](c4ccc(Cl)cc4F)CO5)CC3)n(C[C@@H]3CCO3)c2n1         pEC50    9.92
3  O=C(O)c1ccc2nc(CN3CCC(c4cccc5c4OC(c4ccc(Cl)cn4)CO5)CC3)n(C[C@@H]3CCO3)c2c1 (stereo partly drawn)         pEC50    8.75
4  O=C(O)c1ccc2nc(CN3CCN(c4cccc5c4O[C@@H](c4ccc(Cl)cc4F)CO5)CC3)n(C[C@@H]3CCO3)c2c1         pEC50    8.75

IN: State, for GLP-1 receptor (Homo sapiens (Human), UniProt P43220), measured pEC50 of the molecule listed here: O=C(O)c1ccc2nc(CN3CCC(c4cccc5c4OCC(c4nc6ccccc6s4)O5)CC3)n(C[C@@H]3CCO3)c2c1 (stereo partly drawn)
OUT: 8.69

IN: Enter recorded pEC50 with GLP-1 receptor (Homo sapiens (Human), UniProt P43220) for O=C(O)c1ccc2nc(CN3CCC(c4cccc5c4OC(c4ccc(Cl)cc4F)CO5)CC3)n(C[C@@H]3CCO3)c2n1 (stereo partly drawn) here.
OUT: 8.76

IN: Give measured pEC50 for `O=C(O)c1ccc2nc(CN3CCC(c4cccc5c4OC[C@@H](c4nc6ccccc6s4)O5)CC3)n(C[C@@H]3CCO3)c2c1` (GLP-1 receptor (Homo sapiens (Human), UniProt P43220)).
OUT: 8.77

IN: Write down the reported pEC50 (system: GLP-1 receptor (Homo sapiens (Human), UniProt P43220)) of `O=C(O)c1ccc2nc(CN3CCC(c4cccc5c4OC[C@H](c4nc6ccccc6s4)O5)CC3)n(C[C@@H]3CCO3)c2c1`
OUT: 8.92

IN: Give pEC50 only, for CC1(c2ccc(Cl)cc2F)COc2c(cccc2C2CCN(Cc3nc4ccc(C(=O)O)cc4n3C[C@@H]3CCO3)CC2)O1 (stereo partly drawn) , using GLP-1 receptor (Homo sapiens (Human), UniProt P43220) data.
OUT: 7.74

IN: State, for GLP-1 receptor (Homo sapiens (Human), UniProt P43220), measured pEC50 of the molecule listed here: CC1(c2ccc(Cl)cc2F)COc2cccc(C3CCN(Cc4nc5ccc(C(=O)O)cc5n4C[C@@H]4CCO4)CC3)c2O1 (stereo partly drawn)
OUT: 7.29

IN: Identify measured pEC50 obtained with GLP-1 receptor (Homo sapiens (Human), UniProt P43220) for O=C(O)c1ccc2nc(CN3CC=C(c4cccc5c4OC(c4ccc(Cl)cc4F)CO5)CC3)n(C[C@@H]3CCO3)c2c1 (stereo partly drawn) .
OUT: 8.00
